# Tested on: Stomach
# method_notes: AUC in Sprague-Dawley rat stomach at 0.2 mg/kg, iv administered as cassette dose by LC-MS/MS analysis
# Type: ADME, organism-based
# measurement_setup: in vivo
attribute_measured: AUC (ng·h/g)

In [3]: df
Out[3]:
                                 smiles_repr  units_symbol  recorded_result
 0  CNCc1cn(S(=O)(=O)c2cc(OC)ccn2)c(-c2cccnc2F)c1F        ng·h/g             4964
 1  CNCc1cn(S(=O)(=O)c2ccco2)c(-c2cccnc2F)c1F        ng·h/g             4566
 2  CNCc1cn(S(=O)(=O)c2cncc(F)c2)c(-c2cccnc2F)c1F        ng·h/g             6599
 3  CNCc1cc(-c2cccnc2F)n(S(=O)(=O)c2cccnc2)c1        ng·h/g             7646
 4  CNCc1cn(S(=O)(=O)c2cccs2)c(-c2cccnc2F)c1F        ng·h/g            11717
 5  CNCc1cn(S(=O)(=O)c2cccc(OC)n2)c(-c2cccnc2F)c1F        ng·h/g            14434
 6  CNCc1cn(S(=O)(=O)c2cccnc2)c(-c2cccnc2F)c1F        ng·h/g            10277
 7  CNCc1cn(S(=O)(=O)c2cccc(C)n2)c(-c2cccnc2F)c1F        ng·h/g             8550
 8  CNCc1cn(S(=O)(=O)c2cccnc2C)c(-c2cccnc2F)c1F        ng·h/g             4806
 9  CNCc1cn(S(=O)(=O)c2cnccc2C)c(-c2cccnc2F)c1F        ng·h/g             4248
10  CNCc1cc(-c2cccnc2F)n(S(=O)(=O)c2cccs2)c1        ng·h/g             3815
11  CNCc1cn(S(=O)(=O)c2ccc(F)cn2)c(-c2cccnc2F)c1F        ng·h/g             5179
12  CNCc1cc(-c2cccnc2F)n(S(=O)(=O)c2ccsc2)c1        ng·h/g             9152
13  CNCc1cn(S(=O)(=O)c2ccc(OC)cn2)c(-c2cccnc2F)c1F        ng·h/g             6761
14  CNCc1cn(S(=O)(=O)c2cc(C)ccn2)c(-c2cccnc2F)c1F        ng·h/g            10378
15  CNCc1cn(S(=O)(=O)c2ccc(C)nc2)c(-c2cccnc2F)c1F        ng·h/g            18284
16  CNCc1cn(S(=O)(=O)c2cccnc2Cl)c(-c2cccnc2F)c1F        ng·h/g             6568
17  CNCc1cn(S(=O)(=O)c2ccccn2)c(-c2cccnc2F)c1F        ng·h/g             5757
18  CNCc1cn(S(=O)(=O)c2ccoc2)c(-c2cccnc2F)c1F        ng·h/g             3865
